experiment: Chemical stability in aqueous buffer at pH 1 after 3 hrs; assay type: physicochemical; details: read-out: Stability
Would you kindly list remaining at 3 h for each of these molecules?

# annotated cases, reported remaining at 3 h shown
- molecule: "CC(=O)Oc1ccccc1C(=O)O [ASPIRIN]"
  remaining at 3 h: "> 90%"
- molecule: "CC(C)(CCC(CO[N+](=O)[O-])O[N+](=O)[O-])C(=O)Oc1ccccc1C(=O)O (configuration not stated)"
  remaining at 3 h: "> 97%"
- molecule: "O=C(CCO[N+](=O)[O-])Oc1ccccc1C(=O)O"
  remaining at 3 h: "> 90%"
- molecule: "O=C(CCCCC(CO[N+](=O)[O-])O[N+](=O)[O-])Oc1ccccc1C(=O)O (configuration not stated)"
  remaining at 3 h: "> 85%"
- molecule: "O=C(CCCO[N+](=O)[O-])Oc1ccccc1C(=O)O"
  remaining at 3 h: "> 97%"

Provide remaining at 3 h for all items below, preserving their order.
1. O=C(CCCCO[N+](=O)[O-])Oc1ccccc1C(=O)O
2. CC(C)(CO[N+](=O)[O-])C(=O)Oc1ccccc1C(=O)O

OUT:
["> 97%", "> 97%"]
